Provenance of the data: ChEMBL document CHEMBL1138063

IC50, Nitric oxide synthase 1 (Rattus norvegicus, UniProt P29476), per-entry values.
Please respond with the number in µM and leave the unit unwritten.

{"columns": ["Molecule smiles", "IC50 [µM]"],
 "data": [
  ["C[C@@H]1CO[C@@](CCc2ccc(Cl)cc2)(Cn2ccnc2)O1", 362]
]}

// switching to the query molecule
Response field IC50 (Nitric oxide synthase 1 (Rattus norvegicus, UniProt P29476)) for item Clc1ccc(CCC2(Cn3ccnc3)OCCO2)cc1 : 182

====

Molecular target: Soluble guanylate cyclase (Rattus norvegicus)
Assay: Inhibition of rat lung sGC
Metric name: IC50

So, Clc1ccc(CCC2(Cn3ccnc3)OCCO2)cc1 ? Its IC50 was > 1 mM
